Data credit: PubChem BioAssay (NCI)

Tested on: SK-MEL-5 melanoma
test-details: NCI tumour cell line growth inhibition, 48 h
Quick reference: TGI of the listed items.
measured-quantity: TGI (µM)

[
  {
    "molecule": "CCC(C)[C@H](NC(=O)NC(=O)NC(=O)CI)C(=O)OC (stereo partly drawn)",
    "measured-quantity": "TGI",
    "qualifier-sign": "=",
    "value": 30.5
  },
  {
    "molecule": "O=C(/C=C/c1ccccc1Cl)c1cccc2ccccc12",
    "measured-quantity": "TGI",
    "qualifier-sign": "=",
    "value": 34
  },
  {
    "molecule": "COc1cccc(C2ON=C(c3ccccc3)N2C23CC4CC(CC(C4)C2)C3)c1 (stereo not drawn)",
    "measured-quantity": "TGI",
    "qualifier-sign": ">",
    "value": 10
  }
]

###

Test system: MOLT-4 leukemia
test-details: NCI tumour cell line growth inhibition, 48 h
Listing of recorded TGI by entry.

[
  {
    "molecule": "CC(C)(C)OC(=O)NCCC(=O)NC1(c2cc3ccccc3s2)CCCCC1",
    "TGI": "28.5 µM"
  },
  {
    "molecule": "COC(CC1(/C=C/O[Si](C(C)C)(C(C)C)C(C)C)C(=O)N(COCC[Si](C)(C)C)c2ccccc21)OC (stereo not given)",
    "TGI": "> 100 µM"
  },
  {
    "molecule": "NC1=NN(c2ccccc2)C(=O)C1/C(=N\\NC(=O)c1cc2ccccc2cc1O)C(=O)Nc1cccc(C(F)(F)F)c1 (stereo not given)",
    "TGI": "65.9 µM"
  },
  {
    "molecule": "COC(=O)C1(C(=O)OC)N=C(C)OC1c1ccccn1 (stereo not given)",
    "TGI": "> 100 µM"
  },
  {
    "molecule": "COC(=O)/C=C(/C(=O)OC)c1cc2ccc3c([nH]c4ccccc43)c(C)c-2c1",
    "TGI": "11.5 µM"
  },
  {
    "molecule": "S=C(N/N=C/c1ccccn1)Nc1ccc(Cl)cc1",
    "TGI": "> 100 µM"
  },
  {
    "molecule": "COc1ccc(-c2nnc3n(Cc4ccccc4)c4ccccc4n3c2=O)cc1",
    "TGI": "> 100 µM"
  },
  {
    "molecule": "CCOC(=O)C1=c2[nH]c3cccc4cccc(c43)n2C(=O)CC1c1ccccc1 (stereo not given)",
    "TGI": "> 100 µM"
  },
  {
    "molecule": "c1cc2nnc1SCCCSc1ccc(nn1)SCCCSc1ccc(nn1)SCCCS2",
    "TGI": "> 100 µM"
  },
  {
    "molecule": "NC(=S)N/N=C/c1ccc(N)cn1",
    "TGI": "> 10 µM"
  }
]

###

Test system: MOLT-4 leukemia
test-details: NCI tumour cell line growth inhibition, 48 h
Listed molecules paired with reported TGI

[
  {
    "molecule": "Cc1ccc(C2SCC(=O)N2c2ccc(-c3ccc(-n4c(-c5ccccc5)nc5ccccc5c4=O)cc3)cc2)cc1 (stereo not given)",
    "TGI": "> 100 µM"
  },
  {
    "molecule": "OC(c1cc2ccccc2[nH]1)C1(c2cccnc2)SCCCS1 (stereo not given)",
    "TGI": "> 100 µM"
  },
  {
    "molecule": "CCC12CCCNC1c1c(n(C)c3ccccc13)C(C(=O)OC)C2 (stereo not given)",
    "TGI": "> 275 µM"
  },
  {
    "molecule": "CCCCCCCCCCCCCCCC(=O)N[C@H](/C=C/[C@H](O)CCCCCCCCCCCCC)CO",
    "TGI": "> 100 µM"
  },
  {
    "molecule": "COc1cc(C(=O)C2C(=O)c3ccccc3C2C2(O)c3ccccc3CC2C(O)c2cc(OC)c(OC)c(OC)c2)cc(OC)c1OC (stereo not given)",
    "TGI": "> 100 µM"
  }
]
